target: UniProt:P00533; settings: concentration not given here
Sequence (P00533 whole entry, looked up): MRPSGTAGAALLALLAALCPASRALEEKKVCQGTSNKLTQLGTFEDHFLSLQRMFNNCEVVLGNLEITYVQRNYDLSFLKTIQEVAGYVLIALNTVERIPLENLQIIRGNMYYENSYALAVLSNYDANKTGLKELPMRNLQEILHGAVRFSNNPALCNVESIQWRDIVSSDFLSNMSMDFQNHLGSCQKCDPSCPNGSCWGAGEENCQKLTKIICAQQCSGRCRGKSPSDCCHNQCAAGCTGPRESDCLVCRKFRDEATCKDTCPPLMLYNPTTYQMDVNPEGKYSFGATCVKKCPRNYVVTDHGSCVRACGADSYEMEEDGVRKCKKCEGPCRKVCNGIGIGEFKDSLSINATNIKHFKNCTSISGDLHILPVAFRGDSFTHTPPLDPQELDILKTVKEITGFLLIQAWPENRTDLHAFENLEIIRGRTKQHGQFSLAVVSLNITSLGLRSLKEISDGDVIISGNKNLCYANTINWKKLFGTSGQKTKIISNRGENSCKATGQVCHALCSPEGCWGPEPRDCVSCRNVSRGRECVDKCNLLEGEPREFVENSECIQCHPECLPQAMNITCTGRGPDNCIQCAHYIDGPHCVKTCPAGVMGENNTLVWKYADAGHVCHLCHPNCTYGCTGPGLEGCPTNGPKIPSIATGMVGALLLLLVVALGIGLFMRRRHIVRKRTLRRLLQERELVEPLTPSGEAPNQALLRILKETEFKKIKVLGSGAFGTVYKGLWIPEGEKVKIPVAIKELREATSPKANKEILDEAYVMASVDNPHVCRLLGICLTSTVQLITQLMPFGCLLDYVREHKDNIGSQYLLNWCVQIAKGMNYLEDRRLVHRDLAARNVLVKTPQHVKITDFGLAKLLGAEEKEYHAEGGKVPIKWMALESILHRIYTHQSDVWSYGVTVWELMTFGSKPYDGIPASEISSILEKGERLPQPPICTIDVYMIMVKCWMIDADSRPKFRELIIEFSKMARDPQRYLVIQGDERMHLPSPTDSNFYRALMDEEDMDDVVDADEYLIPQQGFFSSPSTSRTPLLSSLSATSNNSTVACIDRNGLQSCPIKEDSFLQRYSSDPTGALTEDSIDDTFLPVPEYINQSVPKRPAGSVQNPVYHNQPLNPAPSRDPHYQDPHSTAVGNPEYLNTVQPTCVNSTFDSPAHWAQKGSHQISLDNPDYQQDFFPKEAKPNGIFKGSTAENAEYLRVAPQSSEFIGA
Give inhibition for every item shown.

O=C(O)c1cccc(-c2cncc(NCc3cccc(O)c3)c2)c1    50 to 90%
COC(=O)c1cccc(CNc2cncc(-c3cccc(O)c3)c2)c1    50 to 90%

// each molecule listed below needs its inhibition
1. O=C(NCCO)c1cccc(-c2cncc(NCc3cccc(O)c3)c2)c1
2. O=C(Nc1cncc(-c2cccc(O)c2)c1)c1cccc(O)c1
3. Nc1cccc(-c2cncc(NCc3cccc(O)c3)c2)c1
4. COc1cccc(-c2cncc(NCc3cccc(O)c3)c2)c1

Solution:
50 to 90%
> 90%
50 to 90%
50 to 90%

// each molecule listed below needs its inhibition
1. Oc1cccc(CNc2cncc(-c3ccccc3)c2)c1
2. CS(=O)(=O)Nc1cccc(-c2cncc(NCc3cccc(O)c3)c2)c1
3. Oc1cccc(CCNc2cncc(-c3cccc(O)c3)c2)c1
4. CN(C)CCNC(=O)c1cccc(-c2cncc(NCc3cccc(O)c3)c2)c1

Solution:
50 to 90%
50 to 90%
> 90%
50 to 90%

// each molecule listed below needs its inhibition
1. COc1cccc(-c2cncc(NCc3cccc(O)c3)c2)c1F
2. Oc1cccc(CNc2cncc(-c3cccnc3)c2)c1

Solution:
50 to 90%
50 to 90%

* * *

Give inhibition for every item shown.
molecular target: UniProtKB O75116; test: Inhibition of ROCK2 Kinase Activity; settings: concentration not given here
Sequence (O75116 whole entry, looked up): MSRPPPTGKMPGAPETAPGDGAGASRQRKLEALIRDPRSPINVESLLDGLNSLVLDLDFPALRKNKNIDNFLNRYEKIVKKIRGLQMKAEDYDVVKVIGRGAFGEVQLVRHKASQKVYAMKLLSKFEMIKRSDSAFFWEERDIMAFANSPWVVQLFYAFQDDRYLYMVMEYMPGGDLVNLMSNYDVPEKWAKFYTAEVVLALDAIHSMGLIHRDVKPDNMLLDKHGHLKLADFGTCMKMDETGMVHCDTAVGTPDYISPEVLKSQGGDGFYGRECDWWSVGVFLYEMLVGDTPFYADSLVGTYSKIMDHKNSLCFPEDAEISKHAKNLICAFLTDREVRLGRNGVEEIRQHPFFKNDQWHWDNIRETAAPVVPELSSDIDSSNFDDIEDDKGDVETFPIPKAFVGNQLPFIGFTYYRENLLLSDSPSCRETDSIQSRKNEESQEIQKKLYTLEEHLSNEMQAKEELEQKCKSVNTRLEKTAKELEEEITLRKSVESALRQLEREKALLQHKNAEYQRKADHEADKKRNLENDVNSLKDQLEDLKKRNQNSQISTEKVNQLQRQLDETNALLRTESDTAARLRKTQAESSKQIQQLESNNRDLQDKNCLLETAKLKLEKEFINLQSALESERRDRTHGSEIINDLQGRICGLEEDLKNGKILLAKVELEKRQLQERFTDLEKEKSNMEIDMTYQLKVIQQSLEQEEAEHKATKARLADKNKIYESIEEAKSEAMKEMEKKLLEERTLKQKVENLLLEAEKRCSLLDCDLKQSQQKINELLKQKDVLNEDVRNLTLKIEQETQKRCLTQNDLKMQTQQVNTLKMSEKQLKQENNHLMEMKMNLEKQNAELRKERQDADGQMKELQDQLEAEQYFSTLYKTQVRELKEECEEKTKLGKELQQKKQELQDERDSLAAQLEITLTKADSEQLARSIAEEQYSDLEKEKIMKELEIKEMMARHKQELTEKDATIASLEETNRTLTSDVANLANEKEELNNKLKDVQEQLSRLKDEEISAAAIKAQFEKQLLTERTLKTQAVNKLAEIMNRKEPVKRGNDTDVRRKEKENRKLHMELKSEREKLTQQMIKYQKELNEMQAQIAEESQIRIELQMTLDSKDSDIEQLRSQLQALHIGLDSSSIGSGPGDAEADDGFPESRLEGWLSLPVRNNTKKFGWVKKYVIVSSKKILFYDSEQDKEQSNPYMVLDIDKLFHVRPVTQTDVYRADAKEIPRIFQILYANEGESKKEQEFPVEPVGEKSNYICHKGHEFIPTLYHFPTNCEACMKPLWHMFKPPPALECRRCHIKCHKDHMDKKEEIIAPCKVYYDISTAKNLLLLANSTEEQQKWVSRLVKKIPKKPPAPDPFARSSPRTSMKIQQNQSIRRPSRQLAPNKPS

// each molecule listed below needs its inhibition
1. Oc1cccc(CNc2cncc(-c3cccc(O)c3)c2)c1
2. Oc1ccc(-c2cncc(NCc3ccc4c(c3)OCO4)c2)cc1
3. Oc1cccc(CNc2cncc(Cc3cccc(O)c3)c2)c1
4. COc1cccc(-c2cncc(NCc3cccc(O)c3)c2)c1
5. CN(Cc1cccc(O)c1)c1cncc(-c2cccc(O)c2)c1

Solution:
50 to 90%
50 to 90%
50 to 90%
50 to 90%
50 to 90%
